For each of the compounds below, state its viability at 28.5 h, 10 µM.
- experiment-notes: in vitro
- run-parameters: human, hela cells, % viability
// return numeric value only (unit: %, not printed)

The compound listed as O=S(=O)(c1ccc(F)cc1F)n1ccc2c(N3CCNCC3)nccc21 [CBK059061C] has a reported viability at 28.5 h, 10 µM of 89.7

The compound listed as Nc1nc(N)c2cccc(F)c2n1 has a reported viability at 28.5 h, 10 µM of 91.4

The compound listed as COc1ccc(S(=O)(=O)Nc2nccnc2-c2ccc3[nH]ccc3c2)cc1 has a reported viability at 28.5 h, 10 µM of 91.6

====

- experiment-notes: in vitro
- run-parameters: human, hela cells, % viability
test-readout: viability at 28.5 h, 10 µM (%)
// return numeric value only (unit: %, not printed)

The molecule listed as O=C(O)c1ccc(N2C(=O)CC(N3CCC(Cc4ccccc4)CC3)C2=O)cc1 (centres unmarked) has a reported viability at 28.5 h, 10 µM of 93.4

The molecule listed as COc1cc(C(=O)N2CCC3(CC2)CC(=O)c2cc(C)ccc2O3)cc(-c2ccc(OC)c(OC)c2)c1 has a reported viability at 28.5 h, 10 µM of 88.9

The molecule listed as Cc1cc2ccccc2n2c(=O)n(CC(=O)N3CCCC3)nc12 has a reported viability at 28.5 h, 10 µM of 101

The molecule listed as COc1ccc2c(c1)CCCN2C(=O)CCn1ccc(C)n1 has a reported viability at 28.5 h, 10 µM of 104

The molecule listed as COc1cc(C2NC(=O)N(CCc3ccccc3)C(c3ccccc3)=C2C(C)=O)ccc1O (centres unmarked) has a reported viability at 28.5 h, 10 µM of 108

The molecule listed as COc1ccc(C2CC(=O)c3c(C)n[nH]c3C2)cc1 (centres unmarked) has a reported viability at 28.5 h, 10 µM of 114

The molecule listed as CCNC(=O)CN1CCN(c2nc(C(F)(F)F)ccc2C#N)CC1 has a reported viability at 28.5 h, 10 µM of 86.4

The molecule listed as CC(C)c1nc2c(c(=O)c3ccccc3n2C)c(=O)n1-c1ccccc1 has a reported viability at 28.5 h, 10 µM of 97.6

====

- experiment-notes: in vitro
- run-parameters: human, hela cells, % viability
For each of the compounds below, state its viability at 28.5 h, 10 µM.
// return numeric value only (unit: %, not printed)

The compound listed as COC(=O)CCc1ccc(S(=O)(=O)N2CCCN(Cc3cccc(Br)c3)CC2)cc1 [CBK062981] has a reported viability at 28.5 h, 10 µM of 102

The compound listed as CCn1c(SCC(=O)O)nnc1-c1ccco1 [CBK068633] has a reported viability at 28.5 h, 10 µM of 86.8

The compound listed as CCC(C)(C)c1ccc(S(=O)(=O)N2CCN(Cc3cc(C(=O)OC)n(C)c3)CC2)cc1 [CBK062831] has a reported viability at 28.5 h, 10 µM of 96.3

====

- experiment-notes: in vitro
- run-parameters: human, hela cells, % viability
Flag rule - viability at 28.5 h, 10 µM less than 90% flags Satisfied; the remaining entries get Not satisfied.

Report whether reported viability at 28.5 h, 10 µM is lower than 90% (strictly) for Cn1cccc1C(=O)N[C@H]1C[C@H]2C(=O)Nc3ccc(/C=C/c4ccccc4)cc3C(=O)N2C1
Satisfied

Report whether reported viability at 28.5 h, 10 µM is lower than 90% (strictly) for c1ccc(-c2ccc(OCCCCN3CCNCC3)cc2)cc1 [CBK266028G]
Not satisfied

Report whether reported viability at 28.5 h, 10 µM is lower than 90% (strictly) for Fc1ccc(-c2cnn(-c3ccc(OC(F)(F)F)cc3)n2)c(F)c1
Not satisfied

Report whether reported viability at 28.5 h, 10 µM is lower than 90% (strictly) for Cc1ccc(S(=O)(=O)Nc2cccc(NC(=O)c3ccco3)c2)cc1C(=O)O
Not satisfied

Report whether reported viability at 28.5 h, 10 µM is lower than 90% (strictly) for Cc1ccc(-c2c(C(=O)NNC(=S)NCC3CCCO3)csc2C)cc1 (stereo not shown)
Satisfied

Report whether reported viability at 28.5 h, 10 µM is lower than 90% (strictly) for Cc1ccc(S(=O)(=O)N(CCO)CC(O)Cn2c3ccc(Cl)cc3c3cc(Cl)ccc32)cc1 (stereo not shown)
Not satisfied

Report whether reported viability at 28.5 h, 10 µM is lower than 90% (strictly) for O=C(OCc1cccc(C(=O)c2ccccc2)c1)c1ccc(-c2nnc(-c3ccccc3)o2)cc1
Not satisfied

Report whether reported viability at 28.5 h, 10 µM is lower than 90% (strictly) for O=C(O)CN1/C(=C\C=C2/SC(=S)N(c3ccccc3)C2=O)Sc2ccccc21
Satisfied

Report whether reported viability at 28.5 h, 10 µM is lower than 90% (strictly) for CCCNC(=O)NCCc1cccs1
Not satisfied

Data origin: paper PMC12040169
